Source listed as patent US20260083865A1.

biological target: PSMA-expressing C4-2 cells (Homo sapiens, UniProt Q04609); construct: PSMA-expressing C4-2 cells (ATCC, Cat. No. CRL-3314) were cultured in RPMI-1640; host or cells: C4-2 cells; assay: FACS binding assay (competition with 50 nM PSM-0183); settings: FACS binding, C4-2 cells, competition with 50 nM PSM-0183; category; read-out: pIC50 [C4-2] CAT (converted)
Sequence (Q04609 whole entry): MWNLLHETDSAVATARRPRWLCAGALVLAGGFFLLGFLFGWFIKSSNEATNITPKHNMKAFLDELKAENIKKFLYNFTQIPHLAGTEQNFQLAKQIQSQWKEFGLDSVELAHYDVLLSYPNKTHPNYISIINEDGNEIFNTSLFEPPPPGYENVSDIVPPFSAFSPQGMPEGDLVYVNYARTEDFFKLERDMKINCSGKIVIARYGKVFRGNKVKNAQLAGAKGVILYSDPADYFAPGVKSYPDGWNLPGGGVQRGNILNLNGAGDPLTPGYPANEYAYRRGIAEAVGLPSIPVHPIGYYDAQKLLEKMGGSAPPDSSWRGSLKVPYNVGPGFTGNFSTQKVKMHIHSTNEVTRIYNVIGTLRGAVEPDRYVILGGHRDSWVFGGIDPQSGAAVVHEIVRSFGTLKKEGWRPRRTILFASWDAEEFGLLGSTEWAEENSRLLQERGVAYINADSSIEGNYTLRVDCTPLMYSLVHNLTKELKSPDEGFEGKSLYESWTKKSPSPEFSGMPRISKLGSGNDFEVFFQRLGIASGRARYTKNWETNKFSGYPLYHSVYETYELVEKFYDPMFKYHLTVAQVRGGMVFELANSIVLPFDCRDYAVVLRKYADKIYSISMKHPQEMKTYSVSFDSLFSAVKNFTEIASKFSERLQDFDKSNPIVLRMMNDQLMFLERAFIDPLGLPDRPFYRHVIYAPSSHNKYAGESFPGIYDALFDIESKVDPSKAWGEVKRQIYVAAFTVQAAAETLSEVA
Numbered stars: 1 amine (or outer) side, 2 acyl side, 3 side chain; on linkers, the order of the positions; unused ones are H or OH. Bridge positions count the residues as written; N and C are the ends. Square brackets hold non-standard residues; d marks the D form. Peptide text beside a SMILES is read from it. * marks the point of attachment. DOTA = O=C(O)CN1CCN(CC(=O)O)CCN(CC(=O)*)CCN(CC(=O)O)CC1; Ethylenediamine = C(CN[*:2])N[*:1]; X1 = O=C(CC1CCN([*:1])CC1)[*:2]; Tle = CC(C)(C)[C@H](N)C(=O)O; Aib = CC(C)(N)C(=O)O
ENDPOINT_LABEL: IC50

| COMPOUND | TEST_SYSTEM | ENDPOINT_LABEL | REPORTED |
| --- | --- | --- | --- |
| C[C@@H](O)[C@H](NC(=O)CC1CCN(C(=O)CN2CCN(CC(=O)O)CCN(CC(=O)O)CCN(CC(=O)O)CC2)CC1)C(=O)NC(C)(C)C(=O)N[C@@H](Cc1ccccc1)C(=O)N[C@H]1CSSC[C@@H](C(=O)N[C@H](C(=O)NCCN)C(C)(C)C)NC(=O)[C@H](CC(N)=O)NC(=O)C(C)(C)NC(=O)[C@H](CCCNC(=N)N)NC(=O)[C@H](CCCCN)NC1=O [PSM-0241] ({DOTA}-[X1]T[Aib]FCKR[Aib]NC[Tle]-Ethylenediamine; disulfide 5-10) | PSMA-expressing C4-2 cells (Homo sapiens, UniProt Q04609) | IC50 | < 200 nM |
